List of normalized RNA/DNA level without ligand (log10) values.
B1: library; a variant is named by its letters at N, in order (parent)
chain: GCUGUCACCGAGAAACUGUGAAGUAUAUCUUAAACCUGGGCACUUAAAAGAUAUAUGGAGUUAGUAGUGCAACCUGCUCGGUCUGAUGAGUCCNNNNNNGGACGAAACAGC

# Variants of: B1
# Experimental Protocol: normalized RNA/DNA level without ligand (relative to sTRSVctl = 100) (log10 (% of sTRSVctl)); HEK293T; ligand: cyclic di-GMP (c-di-GMP-II aptamer); higher = less ribozyme self-cleavage, higher mRNA level
# Experimental Context: reporter: mCherry (pCS4076), ligand present: no
Readout: normalized RNA/DNA level without ligand (log10)

Sequence Variant	Readout Number
UAUUAU	1.68
CCUUCA	1.6
ACCCUA	1.62
AUCGCG	1.75
UUGCGC	1.74
UGCUGC	1.76
GAGGGG	1.77
